Each recorded value in this set is attributed to paper PMC7948927.

# target.or.system: OGG1 S292N S292N (Homo sapiens) (UniProt O15527)
# Sequence (O15527 whole entry S292N): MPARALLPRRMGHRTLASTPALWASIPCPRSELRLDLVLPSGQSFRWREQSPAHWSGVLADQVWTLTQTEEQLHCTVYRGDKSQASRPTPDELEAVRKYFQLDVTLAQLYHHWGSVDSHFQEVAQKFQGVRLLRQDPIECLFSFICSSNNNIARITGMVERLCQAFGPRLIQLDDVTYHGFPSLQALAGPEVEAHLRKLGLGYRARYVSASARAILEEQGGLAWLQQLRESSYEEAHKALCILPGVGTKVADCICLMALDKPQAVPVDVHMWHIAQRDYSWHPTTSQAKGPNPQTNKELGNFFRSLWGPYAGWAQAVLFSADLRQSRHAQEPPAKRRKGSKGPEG
# test.method.notes: MST
# settings: saturation not reached; N at position 11 of strand 1 = THF (tetrahydrofuran abasic site analog), opposite C; MST: 100 nM labeled duplex, 0.0185-3.28 uM protein, 10 mM Na phosphate pH 7.5, 7% glycerol; temperature not stated
measurement.name: Kd
Answer format: value, then unit.

Here CTCTCCCTTCNCTCCTTTCCTCT / AGAGGAAAGGAGCGAAGGGAGAG [THF:C duplex] was tested on OGG1 S292N S292N (Homo sapiens) (UniProt O15527), and its Kd came to 1.39 µM
